# assay-info: photoluminescence quantum yield (fraction); solvent given as SMILES
# experimental-parameters: in Cc1ccccc1
observation-type: photoluminescence quantum yield

CCCCC(CC)CN1C(=O)c2cc(Oc3ccc(C(C)(C)C)cc3)c3c4c(Oc5ccc(OC)cc5)cc5c6c(cc(Oc7ccc(OC)cc7)c(c7c(Oc8ccc(C(C)(C)C)cc8)cc(c2c37)C1=O)c64)C(=O)N(c1c(C(C)C)cccc1C(C)C)C5=O (centres undefined)
0.57

In: What value of photoluminescence quantum yield has been recorded for this entry: C1=C(c2ccccc2)C2=Nc3c(-c4ccccc4)cc4n3[B-]3(Oc5ccccc5C1=[N+]23)Oc1ccccc1-4 (centres undefined)
Out: 0.51

In: What value of photoluminescence quantum yield has been recorded for this entry: C(#Cc1ccc2ccc3cccc4ccc1c2c34)c1ccccc1
Out: 0.61

In: What value of photoluminescence quantum yield has been recorded for this entry: CC1(C)c2ccccc2-n2c(-c3ccc(-n4c5ccccc5c5ccccc54)cc3)nc3cccc1c32
Out: 0.99

----------
# assay-info: photoluminescence quantum yield (fraction); solvent given as SMILES
# experimental-parameters: in CS(C)=O
Measured photoluminescence quantum yield, listed per entry.
# respond with the number and nothing more

COc1ccc(-c2cc(/C=C/c3ccc(N(c4ccccc4)c4ccccc4)cc3)c(C#N)c(N3CCCCC3)c2)cc1
0.57
O=C1/C(=C2\Sc3ccc(S(=O)(=O)O)cc3C2=O)Sc2ccc(S(=O)(=O)O)cc21
0.008
COc1cc(OC)cc(C2=C3C(C)=C(I)C(/C=C/c4c[nH]c5ccccc45)=[N+]3[B-](F)(F)n3c(/C=C/c4c[nH]c5ccccc45)c(I)c(C)c32)c1
0.1

In: What value of photoluminescence quantum yield has been recorded for this entry: CN(C)c1ccc(-c2nc3c(c4c2-c2ccccc2CC4)-c2ccccc2CC3)cc1
Out: 0.215

In: What value of photoluminescence quantum yield has been recorded for this entry: CCn1c2ccccc2c2cc(/C=C3\C(=O)c4ccccc4S3(=O)=O)ccc21
Out: 0.083

In: What value of photoluminescence quantum yield has been recorded for this entry: CCC1=C(C)C2=Cc3c4ccccc4c4n3[B-](c3cc[n+](C)cc3)(Oc3ccccc3-4)[N+]2=C1C (stereo not drawn)
Out: 0.63

In: What value of photoluminescence quantum yield has been recorded for this entry: N#Cc1c(/C=C/c2ccc(N(c3ccccc3)c3ccccc3)cc2)cc(-c2cccs2)cc1N1CCCCC1
Out: 0.53

In: What value of photoluminescence quantum yield has been recorded for this entry: CN(C)c1ccc(/C=C/c2nc3c4ccccc4c4ccccc4c3[nH]2)cc1
Out: 0.067

----------
# assay-info: photoluminescence quantum yield (fraction); solvent given as SMILES
# experimental-parameters: in ClCCl
Measured photoluminescence quantum yield, listed per entry.
# respond with the number and nothing more

C#Cc1ccc(-c2c3nc(c(-c4ccc(C#C)cc4)c4ccc([nH]4)c(-c4cc(C(C)(C)C)cc(C(C)(C)C)c4)c4cc(c(-c5cc(C(C)(C)C)cc(C(C)(C)C)c5)c5ccc2[nH]5)C=N4)C=C3)cc1
0.0269
COC(=O)C1=C(C(=O)OC)C2(c3ccccc3-c3ccccc32)[C@@H](c2ccccc2)C=C2c3cc(OC)c(OC)cc3CCN21
0.00354
O=[N+]([O-])c1ccc(-c2nc(/C=C/c3ccc(Cl)cc3)c(/C=C/c3ccc(Cl)cc3)[nH]2)cc1
0
COc1ccc(-c2c3ccccc3c3n2[B-](F)(F)[N+]2=Cc4c5ccccc5c(-c5ccc(OC)cc5)n4[B-](F)(F)[N+]2=C3)cc1
0.31
Clc1ccc2nc3cc4ccccc4cc3c(-c3ccccc3)c2c1
0.38
C1=[N+](c2ccccc2)[B-](c2ccccc2)(c2ccccc2)Oc2c1ccc1c3c(ccc21)C=[N+](c1ccccc1)[B-](c1ccccc1)(c1ccccc1)O3
0.76
c1csc(-n2c3ccccc3c3ccccc32)c1
0.014
COC(=O)/C=C/C1=CC2=C(c3c(C)cc(C)cc3C)c3cc(/C=C/C(=O)OC)cn3[B-](F)(F)[N+]2=C1
0.36

In: What value of photoluminescence quantum yield has been recorded for this entry: CC(C)(C)c1cc(-n2c(-c3ccc(C(=C(c4ccccc4)c4ccccc4)c4ccccc4)cc3)cc3c2cc(-c2ccc(C(=C(c4ccccc4)c4ccccc4)c4ccccc4)cc2)n3-c2cc(C(C)(C)C)cc(C(C)(C)C)c2)cc(C(C)(C)C)c1
Out: 0.0085

In: What value of photoluminescence quantum yield has been recorded for this entry: ClP1(Cl)=NP(Cl)(Cl)=NP(Cl)(Oc2ccc3ccc4cccc5ccc2c3c45)=N1 (stereo not given)
Out: 0.55

In: What value of photoluminescence quantum yield has been recorded for this entry: [C-]#[N+]c1ccc(-c2ccc(N)cc2)cc1
Out: 0.75

In: What value of photoluminescence quantum yield has been recorded for this entry: Cc1c(C(=O)c2ccccc2)c2ccc3cccc4c5cccc6ccc1c(c65)c2c34
Out: 0.02

----------
# assay-info: photoluminescence quantum yield (fraction); solvent given as SMILES
# experimental-parameters: in CO
Label True when photoluminescence quantum yield is at or above 0.05; otherwise label False.

Example cases with answers are listed next.
Cc1ccc(-c2ccc(/C=C/c3cccn3C)cn2)nc1
True
CCNc1cc2c(cc1C)C(c1ccccc1C(=O)O)=C1CCCC(/C=C/C3=[N+](C)c4ccc5ccccc5c4C3(C)C)=C1O2
True
Cc1ccc(-n2c3ccccc3c3cc(C(=C(C#N)C#N)c4ccccc4)ccc32)cc1
False

In: # bool: photoluminescence quantum yield of COc1ccc(OC)c(C(C)=O)c1 >= 0.05
Out: True

In: # bool: photoluminescence quantum yield of CN(C)c1nc(N(C)C)c2nc(C#N)n(Cc3ccccc3)c2n1 >= 0.05
Out: False

In: # bool: photoluminescence quantum yield of CCOC(=O)/C(C#N)=C\c1ccc2c(c1)c1ccccc1n2-c1ccc(C)cc1 >= 0.05
Out: True

In: # bool: photoluminescence quantum yield of O=C1/C(=C2\Sc3ccc(S(=O)(=O)O)cc3C2=O)Sc2ccc(S(=O)(=O)O)cc21 >= 0.05
Out: False

In: # bool: photoluminescence quantum yield of Cc1cnc(NC(=O)C2=C(O)c3ccccc3S(=O)(=O)N2C)s1 >= 0.05
Out: False

----------
# assay-info: photoluminescence quantum yield (fraction); solvent given as SMILES
# experimental-parameters: in ClC(Cl)Cl
observation-type: photoluminescence quantum yield
# respond with the number and nothing more

Consider the worked cases shown below.
N#Cc1nc(N(Cc2ccccc2I)Cc2ccccc2I)c(C#N)nc1N(Cc1ccccc1I)Cc1ccccc1I
0.61
C[Si]1(C)O[Si](C)(C)c2cc3cc4c(cc3cc21)C(=O)c1cc2cc3c(cc2cc1C4=O)[Si](C)(C)O[Si]3(C)C
0.01

Please look at the following compound next.
In: What value of photoluminescence quantum yield has been recorded for this entry: CCOC(=O)c1ccc(/C=C/C2=[N+]3C(=C(c4ccccc4)c4ccc(/C=C/c5ccc(C(=O)OCC)o5)n4[B-]3(F)F)C=C2)o1
Out: 0.29

----------
# assay-info: photoluminescence quantum yield (fraction); solvent given as SMILES
# experimental-parameters: in ClCCl
observation-type: photoluminescence quantum yield
# respond with the number and nothing more

Consider the worked cases shown below.
CCCCn1c2ccc(C#N)cc2c2cc(C#N)ccc21
0.1
CCCCCCCCCCn1nnc(-c2ccc(C#Cc3ccc(C#Cc4ccc(-c5nnn(CCCCCCCCCC)n5)cc4)c4nc5c6ccccc6c6ccccc6c5nc34)cc2)n1
0.04
CCN(CC)c1ccc2c(c1)OC1=[N+](c3ccc(I)cc3)[B-](F)(F)n3c(nc4ccccc43)C1=C2
0.81
[O-][n+]1c(/C=C/c2ccccc2)nc(N2CCOCC2)c2c1CCCC2
0.21

In: What value of photoluminescence quantum yield has been recorded for this entry: C[Si](C)(C)c1ccc2ccc3cccc4ccc1c2c34
Out: 0.36

In: What value of photoluminescence quantum yield has been recorded for this entry: CN(C)c1cc(-c2ccccc2)cc2cc(C#Cc3ccncc3)ccc12
Out: 0.72

In: What value of photoluminescence quantum yield has been recorded for this entry: Cc1ccccc1[B-]1(c2ccccc2C)n2nc(C(F)(F)F)cc2-c2c3ccccc3cc[n+]21
Out: 0.0197

In: What value of photoluminescence quantum yield has been recorded for this entry: O=C1c2cc(F)ccc2-c2cnccc21
Out: 0.018

In: What value of photoluminescence quantum yield has been recorded for this entry: CCCCCCC1(CCCCCC)c2cc(-c3ccc(-c4ccc(-c5ccc(-c6ccc7c(c6)C(CCCCCC)(CCCCCC)c6cc(-n8c9ccccc9c9ccccc98)ccc6-7)s5)c5nsnc45)s3)ccc2-c2ccc(-n3c4ccccc4c4ccccc43)cc21
Out: 0.39

----------
Measured photoluminescence quantum yield, listed per entry.
# assay-info: photoluminescence quantum yield (fraction); solvent given as SMILES
# experimental-parameters: in CO

Consider the worked cases shown below.
COCCOCCOc1cc(C=O)c(OCCOCCOC)cc1C=O
0.22
Nc1ccc(C#Cc2ccc3ccc4ccc(C#Cc5ccc(NS(=O)(=O)c6ccc([N+](=O)[O-])cc6[N+](=O)[O-])cc5)c5ccc2c3c45)cc1
0.016

In: What value of photoluminescence quantum yield has been recorded for this entry: O=C(O)c1ccccc1Nc1cccc(C(F)(F)F)c1
Out: 0.001

In: What value of photoluminescence quantum yield has been recorded for this entry: CC(=O)c1ccc(-c2nc3ccc(N(C)C)c(Cl)c3s2)cc1
Out: 0.054

In: What value of photoluminescence quantum yield has been recorded for this entry: CCOC(=O)c1sc(SC)c2c(=O)[nH]nnc12
Out: 0.029

In: What value of photoluminescence quantum yield has been recorded for this entry: Nc1ccc2c(c1)C(=O)O/C2=C\c1ccc(Cl)cc1
Out: 0.14

In: What value of photoluminescence quantum yield has been recorded for this entry: Cc1cc(C)nc(N)n1
Out: 0.248
